Values from ChEMBL document CHEMBL1201862

- Tested on: UACC-257
- Assay Summary: NCI tumour cell line growth inhibition, 48 h
The source made the active and inactive calls. Cut-off read from the data, not from the text of the source: active = GI50 up to about 1.1 µM and inactive = higher.
Entry note: the call must match one of active, inactive

| Compound | Qualitative Label |
| --- | --- |
| O=C1CCCSCCCC(=O)CCCSCCC1 | inactive |

Any idea what this test logged for "Cc1nc(N)c(N2CCN(Cc3ccccc3)CC2)c(O)n1" ?
inactive

Write down the call the test reported for this compound. Item: "CC(=O)C1=C(O)/C(=C\c2ccco2)OC1=O"
inactive

// return assay outcome for "CSc1nc(=S)[nH]c2[nH]nc(C)c12"
inactive

So what was the verdict on COc1cc(S(=O)(=O)Nc2ccc(-c3csc(N4C(=O)C(Cl)C4c4cccs4)n3)cc2)ccc1Cl (stereo not given) in this test?
inactive

Recorded call for O=C1NC(=O)/C(=N\c2cccc3c(=O)[nH][nH]c(=O)c23)C(c2nc3ccccc3s2)C1=O (stereo not given) ?
inactive

Per the assay record, what outcome was assigned to "CN(c1ccccc1Cl)S(=O)(=O)c1ccccc1[N+](=O)[O-]" ?
inactive

Can you look up the reported call for O=C1CC(C2(O)C(=O)Nc3ccc([N+](=O)[O-])cc32)c2ccccc21 (stereo not given) for me?
inactive

Call for entry CC(C)C1=Cc2ccc3c(c2C(=O)C1=O)CCCC3(C)C [MILTIRONE] :
inactive

Per the assay record, what outcome was assigned to "Cn1c(-c2cccs2)cc(-c2ccsc2)c1-c1cccs1" ?
inactive

Per the records of this test, what outcome belongs to CC1[C@@]2(CCC(C)(C)O2)O[C@@H]2C=C3C4CCC5Cc6nc7c(nc6C[C@@]5(C)C4C[C@H](O)[C@@]3(C)[C@]12O)CC1CCC2C3=C[C@H]4O[C@@]5(O[C@@](C)(CO)C[C@@H]5O)C(C)[C@@]4(O)[C@]3(C)[C@@H](O)CC2[C@]1(C)C7 (stereo not given in full) ?
active

Any idea what this test logged for "Oc1c(C2=N[C@H]3CCCC[C@@H]3N2)ccc2ccccc12" ?
inactive

====

- System: U-251
- Assay Summary: NCI tumour cell line growth inhibition, 48 h
Calls of active or inactive are those of the source. Cut-off read from the data, not from the text of the source: active = GI50 up to about 1.1 µM and inactive = higher.
Reported Metric: GI50

Some solved cases for reference:
| Molecule | GI50 |
| --- | --- |
| CC(C)(C)OC(=O)N(CCCCNC(=O)OCc1ccccc1)CCCNC(=O)OCc1ccccc1 | 35.6 µM (inactive) |
| COC(=O)C1=C(O)C(C(=O)OC)[C@]2(O)[C@H](C(=O)OC)[C@H]1C[C@@H](c1ccc(Cl)cc1)[C@H]2C(=O)OC (stereo partly drawn) | 6.05 µM (inactive) |

Fill in GI50 for each of the 3 molecules listed.
1. CN(C)C1(c2cc3ccccc3s2)CCCCC1
2. CC[C@H](C)C1=C(O)[N@+]2([O-])Oc3ccc(-c4c(O)c(O)c(-c5ccc(OC(C)=O)cc5)c(OC(C)=O)c4OC(C)=O)cc3O[C@]2([C@@H](C)CC)C(=O)N1O
3. CCCCCCCCCCCCCS(=O)(=O)NCC(N)=O

1: 43.6 µM (inactive); 2: 18.6 µM (inactive); 3: > 100 µM (inactive)

For every item in the list below, what is its measured GI50?
1. C=C1C(OC2O[C@@H]3O[C@@]4(C)CC[C@H]5[C@H](C)CC[C@@H](C2=C)[C@@]35O4)O[C@@H]2O[C@@]3(C)CC[C@H]4[C@H](C)CC[C@@H]1[C@@]24O3 (stereo partly drawn)
2. CC12CCC(C/C1=N\NC(N)=O)C2(C)C (stereo not drawn)
3. CSc1nc(=S)[nH]c2[nH]nc(C)c12

1: > 50 µM (inactive); 2: > 100 µM (inactive); 3: > 100 µM (inactive)
